Assay: acute oral toxicity (LD50) in mice
Conditions: mouse, in vivo, orally administered

# MOLECULE, LD50
rows = [
    ("O=C(O)C[CH2][Ge](=[O])[O][Ge](=[O])[CH2]CC(=O)O [Compound 1, 2-carboxyethylgermanium sesquioxide]", "≥ 6000 mg/kg"),
]

---

Test: acute oral toxicity (LD50) in rats
Conditions: rat, in vivo, orally administered

# COMPOUND, LD50
measured = [
    ("O=C(O)C[CH2][Ge](=[O])[O][Ge](=[O])[CH2]CC(=O)O [Compound 1, 2-carboxyethylgermanium sesquioxide]", "≥ 10000 mg/kg"),
]
